Assay: Oral pharmacokinetic (PK) study (Quintara Discovery)
Type: in vivo
Conditions: plasma; oral gavage 30 mg/kg, Hot Rod Formulation Kit #8
From the text: The in vivo anticancer activity displaying drug like properties also bears this out as shown in FIG. 9 and the corresponding example.
metric.name: Cmax
# do not omit the unit; it follows the number

Sample "CN(C)C(=O)c1cc2cnc(Nc3ccc(-c4csc5c(=O)cc(N6CCOCC6)oc45)cc3)nc2n1C1CCCC1" — what was its Cmax?
1400 nM

----------
biological target: CDK4 (Homo sapiens, UniProt P11802); construct: Reaction Biology Corp., Malvern, PA (contract assay service); test: Cyclin dependent kinase inhibition (Reaction Biology Corp.); format: biochemical; settings: 10-point curve, grouped by potency
Sequence (P11802 whole entry): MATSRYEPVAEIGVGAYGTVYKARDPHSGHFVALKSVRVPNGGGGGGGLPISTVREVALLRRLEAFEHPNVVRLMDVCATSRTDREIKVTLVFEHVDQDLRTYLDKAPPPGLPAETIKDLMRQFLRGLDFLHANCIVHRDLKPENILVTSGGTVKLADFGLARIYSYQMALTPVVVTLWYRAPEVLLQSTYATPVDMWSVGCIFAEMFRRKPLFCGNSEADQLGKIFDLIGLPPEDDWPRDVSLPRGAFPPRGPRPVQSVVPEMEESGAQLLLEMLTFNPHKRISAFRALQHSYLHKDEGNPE
Sequence (P24385 whole entry partner): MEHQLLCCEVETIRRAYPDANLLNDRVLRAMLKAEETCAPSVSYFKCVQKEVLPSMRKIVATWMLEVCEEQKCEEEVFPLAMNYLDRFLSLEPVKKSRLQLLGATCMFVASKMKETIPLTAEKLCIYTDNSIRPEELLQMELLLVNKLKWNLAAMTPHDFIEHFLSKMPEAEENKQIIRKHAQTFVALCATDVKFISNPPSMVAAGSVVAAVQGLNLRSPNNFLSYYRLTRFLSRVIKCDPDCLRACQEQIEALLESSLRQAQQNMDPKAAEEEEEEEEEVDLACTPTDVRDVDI
Where a name gives a salt, the structure may show the parent alone.
metric.name: IC50

{"compound": "CN(C)C(=O)c1cc2cnc(Nc3ccc(-c4csc5c(=O)cc(N6CCNCC6)oc45)cc3)nc2n1C1CCCC1 [compound 2, hydrochloride]", "reported.result": "< 100 nM"}

For CDK4 (Homo sapiens, UniProt P11802), provide IC50 of "COC(=O)c1cc(-c2csc3c(=O)cc(N4CCOCC4)oc23)ccc1Nc1ncc2cc(C(=O)N(C)C)n(C3CCCC3)c2n1" please.
> 50000 nM

For CDK4 (Homo sapiens, UniProt P11802), provide IC50 of "CN(C)C(=O)c1cc2cnc(Nc3ccc(-c4csc5c(=O)cc(N6CCOCC6)oc45)c(C(=O)O)c3)nc2n1C1CCCC1" please.
5000 to 50000 nM

For CDK4 (Homo sapiens, UniProt P11802), provide IC50 of "CC(=O)c1c(C)c2cnc(Nc3ccc(-c4csc5c(=O)cc(N6CCOCC6)oc45)cc3)nc2n(C2CCCC2)c1=O" please.
< 100 nM

For CDK4 (Homo sapiens, UniProt P11802), provide IC50 of "CN(C)C(=O)c1cc2cnc(Nc3ccc(-c4csc5c(=O)cc(N6CCOCC6)oc45)cc3)nc2n1C1CCCC1" please.
< 100 nM

For CDK4 (Homo sapiens, UniProt P11802), provide IC50 of "CN(C)C(=S)c1cc2cnc(Nc3ccc(-c4csc5c(=S)cc(N6CCOCC6)oc45)cc3)nc2n1C1CCCC1" please.
100 to 1000 nM

For CDK4 (Homo sapiens, UniProt P11802), provide IC50 of "CN(C)C(=O)c1cc2cnc(Nc3ccc(-c4csc5c(=O)cc(N6CCN(C(=O)OC(C)(C)C)CC6)oc45)cc3)nc2n1C1CCCC1" please.
< 100 nM

For CDK4 (Homo sapiens, UniProt P11802), provide IC50 of "COC(=O)c1cc(Nc2ncc3cc(C(=O)N(C)C)n(C4CCCC4)c3n2)ccc1-c1csc2c(=O)cc(N3CCOCC3)oc12" please.
< 100 nM

Source: patent US11760762B2
